# assay target: aldose reductase (Bos taurus)
# Construct: The enzyme was isolated from the homogenized preparation by successive chromatography; from tissue; host or cells: calf eye lens
# assay method text: Aldose reductase inhibition (percent inhibition of enzyme activity)
# Assay type: biochemical, calf
# condition summary: 10^-6 M (× 7.5); read-out: Percent Inhibition (%)
measurement name: inhibition (%)
# output: bare number, implied unit %

Take a look at these entries with their results.
CCCCCCCCCCCCCCCc1cccc(O)c1C(=O)O ... 40
CCC/C=C\C/C=C\CCCCCCCc1cc(O)c(C)c(O)c1 ... 43
CCCCCC/C=C\CCCCCCCc1cccc(O)c1C(=O)O [Compound 2, 6-[8(z)-pentadecenyl]salicylic acid] ... 91
CCC/C=C\C/C=C\CCCCCCCc1cccc(O)c1C(=O)O ... 91
C=CC/C=C\C/C=C\CCCCCCCc1cccc(O)c1C(=O)O ... 77

Field request: inhibition | item: C=CC/C=C\C/C=C\CCCCCCCc1cc(O)c(C)c(O)c1
53

---

Reported values of inhibition for individual entries
# assay target: aldose reductase (Bos taurus, UniProt P16116)
# Construct: The enzyme was isolated from the homogenized preparation by successive chromatography; from tissue; host or cells: calf eye lens
# assay method text: Aldose reductase inhibition (percent inhibition of enzyme activity)
# Assay type: biochemical, calf
# condition summary: 10^-6 M (× 3.8); read-out: Percent Inhibition (%)
Report the figure in % without appending any unit label.

Examples with their reported inhibition follow.
C=CC/C=C\C/C=C\CCCCCCCc1cc(O)c(C)c(O)c1 ... 28
CCC/C=C\C/C=C\CCCCCCCc1cc(O)c(C)c(O)c1 ... 22

Which inhibition reading was recorded for the compound CCC/C=C\C/C=C\CCCCCCCc1cccc(O)c1C(=O)O ?
18

And for CCCCCC/C=C\CCCCCCCc1cccc(O)c1C(=O)O [Compound 2, 6-[8(z)-pentadecenyl]salicylic acid] ?
42

Another: C=CC/C=C\C/C=C\CCCCCCCc1cccc(O)c1C(=O)O
60

// same read-out, input: CCCCCCCCCCCCCCCc1cccc(O)c1C(=O)O
27
